The measured values listed here are drawn from the DeepSol protein solubility set.

experiment: soluble on expression in E. coli; label from the status in PepcDB or PDB records

sequence.chain: MSLTNEKSTEEIALGIRRRVFFHTMKNNGGYLSQACSAAESLALLYNELLTLGEPTLPKVPLPFRGVPSAHNPDAFTGAGYHGPVGPNFDRFFISPAHYALVIYSVLIEMGRMDEHALDHFNKDGGSVEMIGAEHSPGMEVTTGSLAQGLSMASGVAWARLRKKEPGKVWVYMSDGEFQEGQTWECLAAMSYHKIDNIRVIVDVNRQQCDGAMSSVLDLGDLASRVASFGVTCRSVDGHDLGALRAAAESAEAGKPLVILANTSPYQGMDFLKKRFPRLHYVRFKSAEERQEMQTALAIELGIDLTAMERAEGHHHHHH
soluble on expression in E. coli: not soluble
--
sequence.chain: LDFDILTNDGTHRNMKLLIDLKNIFSRQLPKMPKEYIVKLVFDRHHESMVILKNKQKVIGGICFRQYKPQRFAEVAFLAVTANEQVRGYGTRLMNKFKDHMQKQNIEYLLTYADNFAIGYFKKQGFTKEHRMPQEKWKGYIKDYDGGTLMECYIHPYVDYGR
soluble on expression in E. coli: soluble
--
sequence.chain: LDNEMLTLDIVASDLLTLQALNAARLKEAGAVDATFVTKAINEQPLNLGQGIWLSDSAEGNLRSAIAVSRAANAFDVDGETAAMLVSVAMNDDQPIAVLKRLADLLLDNKADRLLKADAATLLALLTSDDAPTDDV
soluble on expression in E. coli: not soluble
--
sequence.chain: MSVSGLKAELKFLASIFDKNHERFRIVSWKLDELHCQFLVPQQGSPHSLPPPLTLHCNITESYPSSSPIWFVDSEDPNLTSVLERLEDTKNNNLLRQQLKWLICELCSLYNLPKHLDVEMLDQPLPTGQNGTTEEVTSEEEEEEEEMAEDIEDLDHYEMKEEEPISGKKSEDEGIEKENLAILEKIRKTQRQDHLNGAVSGSVQASDRLMKELRDIYRSQSYKTGIYSVELINDSLYDWHVKLQKVDPDSPLHSDLQILKEKEGIEYILLNFSFKDNFPFDPPFVRVVLPVLSGGYVLGGGALCMELLTKQGWSSAYSIESVIMQINATLVKGKARVQFGANKNQYNLARAQQSYNSIVQIHEKNGWYTPPKEDG
soluble on expression in E. coli: soluble

----------
assay: soluble on expression in E. coli; label from the status in PepcDB or PDB records

sequence.chain: GDTHEFHKLLIKVVDLFLEDRIKEFEMKLNTTLDELEFEELIGKPDSSNSAENNGIFIDEYSYDASENAMKKLFVEYVRQPEFKYTVLSIKGVNDWVRE
soluble on expression in E. coli: soluble

sequence.chain: MAHHHHHHMGTLEAQTQGPGSMKISFSEIIHNALKEDLGDKGDITTNSILINEKVNFAINTRENLVVCGIPILEEVFNMNKEHVKYEIHKKDGDITGKNSTLVSGEALAIYLLPIERVILNFIQHASGIASITRQFVDEVSGTKVKIRSTRKTTPGLRMLDKYSVCIGGGESYRDNLCDGVLIKDNHIASCGSITLAIQRLRKNLKNEYIAIECDNISQVEESLSNNVDMILLDNMSISEIKKAVDIVNGKSVLEVSGCVNIRNVRNIALTGVDYISIGCITNSFQNKDIGLDIEYNNNK
soluble on expression in E. coli: soluble

sequence.chain: MGSDKIHHHHHHMTLPMPEKFWDIRIHKVDIHPGVTGLCVGYERGVWRKDQFVRHAMDWLPEFALKESELKGVDSANMVQMVRDAATAIYKSEKFHKRGEFGELFLHMAKRQVFNSIPAVSKIYYKTARNDTVKGFDSVHVVEAEDGLELWLGEVKFYKDLNSAVADVVKELQGHTQTDYLRDEFNLIMNKVDRDWEHYETMKRLMSKNTSLDEVFKRACIPVLLTYESEAICQCSVCDEEYKKLFINEIREAYKLFSSKKLPTDIRIHLFLFPLASKPELIKALDKKLKLWQQL
soluble on expression in E. coli: not soluble

sequence.chain: MDFGALPPEINSTRMYAGAGAAPLMAAGATWNGLAVELSTTASSVESVIMQLTTEQWLGPASMSMVVAAQPYLAWLTYTAESAAHAAAQAMASAAAFEAAFAMTVPPAEVAANRALLAALVATNVLGQNTPAIMATEAHYGEMWAQDALAMYGYAASSAAAGRLNPLITPSQTANMAGLAGQAAAVSHAAAASTVQQVGLGSLISNLPNAVMGFASPLTSAADAAGLGGIIQDIEELLGITFVQNAINGAVNTTAWFVMATIPNAVFLGHAFAALNPATVTAAADAVPAAAAAAGLAHTVTPVGVGGASLTASLGEASSVGGLSVPAGWSTAAPAMTSGTTALEGSGWAVPEEAGPVAAMPGMAGISGAAKGAGAYAGPRYGFKPIVMPKQVVV
soluble on expression in E. coli: not soluble

sequence.chain: MGSDKIHHHHHHMPENYTPAAAATGTWTEEEIRHQPRAWIRSLTNIDALRSALNNFLEPLLRKENLRIILTGAGTSAFIGDIIAPWLASHTGKNFSAVPTTDLVTNPMDYLNPAHPLLLISFGRSGNSPESVAAVELANQFVPECYHLPITCNEAGALYQNAINSDNAFALLMPAETHDRGFAMTSSITTMMASCLAVFAPETINSQTFRDVADRCQAILTSLGDFSEGVFGYAPWKRIVYLGSGGLQGAARESALKVLELTAGKLAAFYDSPTGFRHGPKSLVDDETLVVVFVSSHPYTRQYDLDLLAELRRDNQAMRVIAIAAESSDIVAAGPHIILPPSRHFIDVEQAFCFLMYAQTFALMQSLHMGNTPDTPSASGTVNRVVQGVIIHPWQA
soluble on expression in E. coli: not soluble

sequence.chain: MINNDLLRRISNIFDLTDETILTTFALSQCEISAEQLTNFFKEKDDTAYQPLEDVQFASFLNGLIIAKRGPSDGPERPVEEELTNNMIFNKVKIALSLKAEEVIATLELADLSLGKYELSAFFRNVNNKHYKDCSDEVLSAFLKGLKIKSK
soluble on expression in E. coli: not soluble
